Study System: FVIIa/TF-catalyzed activation of FX (Homo sapiens)
Construct: Single-chain FVII may be converted to two-chain FVIIa by factor Xa
Test Description: FX activation assay (FVIIa/TF-catalyzed FX activation)
Format: biochemical
Stated Conditions: second part of table, Examples 14-22; read-out: IC50 (μM) FX activation by FVIIa/TF
Listed next: entries and their corresponding IC50.

Examples with their reported IC50 follow.
1. CCN(CC)CCCC(C)Nc1nc(/C=C/c2ccc(Br)cc2)nc2cc(Cl)ccc12 (stereo not shown) [Example 16]: < 20 µM
2. CN(C)CCCNC(=O)c1cc2cc(OCc3ccccc3)ccc2n1Cc1ccc(Cl)c(Cl)c1 [Example 20]: < 20 µM
3. CCN(CC)CCCC(C)Nc1nc(C=Cc2ccc(Br)cc2Br)nc2cc(Cl)ccc12 (stereo not shown) [Example 15]: < 20 µM

Quick one: IC50 for CN(C)CCCN(C)Cc1cn(Cc2ccc(Cl)c(Cl)c2)c2cc(Cl)c(OCc3ccccc3)cc12 [Example 17] ?
< 20 µM

---

Study System: FVIIa/TF-catalyzed activation of FX (Homo sapiens)
Construct: Single-chain FVII may be converted to two-chain FVIIa by factor Xa
Test Description: FX activation assay (FVIIa/TF-catalyzed FX activation)
Format: biochemical
Stated Conditions: 100 pM FVIIa, 5 pM TF, 175 nM FX; FXa read with S-2765; read-out: TF/FVII/FX (FX activation) IC50 FXa
Measured Metric: IC50 (µM)

1. CC(C)Cc1ccc(C(C)CNC(=N)C(C)c2ccc(CC(C)C)cc2)cc1 (stereo not drawn): 11

[P] CCCCCCCOc1ccc(/C(=N\C2CC(C)(C)NC(C)(C)C2)c2ccccc2)cc1
[Q] CN(C)CCNCC(O)CN1CCn2c3c(c4cc(C5CCCCC5)ccc42)CCCC31 (stereo not drawn)
Smaller IC50 value? Options are P and Q I would appreciate it if you answered with the label of your choice.
P

---

Study System: FVIIa/TF-catalyzed activation of FX (Homo sapiens, UniProt P08709+P13726)
Construct: Single-chain FVII may be converted to two-chain FVIIa by factor Xa
Sequence (P08709 61-212 limits assumed): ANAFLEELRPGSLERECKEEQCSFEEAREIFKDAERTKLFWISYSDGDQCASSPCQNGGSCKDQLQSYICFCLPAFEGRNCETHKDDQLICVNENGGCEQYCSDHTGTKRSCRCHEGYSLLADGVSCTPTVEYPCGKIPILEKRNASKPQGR
Sequence (P08709 213-466 limits assumed): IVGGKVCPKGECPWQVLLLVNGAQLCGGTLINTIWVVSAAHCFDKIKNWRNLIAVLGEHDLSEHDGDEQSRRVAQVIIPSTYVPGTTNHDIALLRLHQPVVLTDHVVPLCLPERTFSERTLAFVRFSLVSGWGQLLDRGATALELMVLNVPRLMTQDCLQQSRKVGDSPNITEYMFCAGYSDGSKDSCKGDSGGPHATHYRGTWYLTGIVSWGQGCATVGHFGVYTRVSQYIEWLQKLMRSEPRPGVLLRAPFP
Sequence (P13726 33-295): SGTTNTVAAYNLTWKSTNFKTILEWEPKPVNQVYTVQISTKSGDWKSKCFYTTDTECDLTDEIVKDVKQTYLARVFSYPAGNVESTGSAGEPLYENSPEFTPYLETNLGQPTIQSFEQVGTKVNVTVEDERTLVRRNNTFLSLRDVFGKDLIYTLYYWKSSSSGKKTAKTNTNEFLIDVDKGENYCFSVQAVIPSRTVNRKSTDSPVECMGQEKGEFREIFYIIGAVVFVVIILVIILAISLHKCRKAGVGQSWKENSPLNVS
Test Description: FX activation assay (FVIIa/TF-catalyzed FX activation)
Type: biochemical
Stated Conditions: second part of table, Examples 14-22
Measured Metric: IC50

Quick one: IC50 for CN(C)CCc1cn(Cc2ccc(Cl)c(Cl)c2)c2cc(Cl)c(OCc3ccccc3)cc12 ?
< 20 µM

---

Study System: FVIIa/TF-catalyzed activation of FX (Homo sapiens, UniProt P08709)
Construct: Single-chain FVII may be converted to two-chain FVIIa by factor Xa
Test Description: FX activation assay (FVIIa/TF-catalyzed FX activation)
Type: biochemical
Stated Conditions: 100 pM FVIIa, 5 pM TF, 175 nM FX; FXa read with S-2765; read-out: TF/FVII/FX (FX activation) IC50 FXa
pIC50: −log10 of the molar value.
Measured Metric: pIC50

1) CN1CCN(CC(=O)N2CCn3c4c(c5cc(C6CCCCC6)ccc53)CCCC42)CC1 (stereo not drawn) [Example 8]: 4.85
2) COc1ccc(/C=C2\c3ccccc3-c3ccc(C(=O)CCCCN4CCCCC4)cc32)cc1OC [Example 12]: 5.15
3) COc1cccc(/C=N\Nc2nc(Nc3ccccc3)nc(Nc3ccc(C)cc3C)n2)c1O [Example 7]: 4.77
4) CCCCCCCCCCCCCCCCn1c2c(c(=N)c3c1CCC3)CCC2 [Example 10]: 5.11

[A] N=c1n(CCN2CCCC2)c2ccccc2n1CC(O)COc1ccc(Cl)cc1 (stereo not drawn) [Example 5]
[B] CCC(=C(c1ccc(OC)cc1)c1ccc(OC)cc1)c1cn(CC(O)CN2CCCC2)c2ccccc12 (stereo not drawn) [Example 11]
Just curious, which one has the larger pIC50 reading, A or B ? I would appreciate it if you answered with the label of your choice.
B
(B: 5.11, A: 4.74)
